experiment: Distribution of C1 in tissues; format: in vivo, Wistar rats; conditions: male, Wistar, rat, testis, po, 75 mg/kg, Testis, p.o. 75 mg/kg, individual rats; read-out: Concentration (µg/mL) at 6 h, Rat 1-3
Property measured: concentration at 6 h (µg/mL)
Report the figure in µg/mL without appending any unit label.

For O=C(/C=C(/Br)C(=O)O)Nc1ccc(O)c(C(=O)O)c1 [Compound C1] the compound record lists concentration at 6 h as 2.1

* * *

experiment: Distribution of C1 in tissues; format: in vivo, Wistar rats; details: male, Wistar, rat, brain, po, 75 mg/kg, Brain, 6 h, p.o. 75 mg/kg, n = 3; read-out: Average Concentration
Property measured: concentration at 6 h (ng/mL)
Report the figure in ng/mL without appending any unit label.

For O=C(/C=C(/Br)C(=O)O)Nc1ccc(O)c(C(=O)O)c1 [Compound C1] the compound record lists concentration at 6 h as 2500
